B1: Azoarcus group I ribozyme (parent)
chain: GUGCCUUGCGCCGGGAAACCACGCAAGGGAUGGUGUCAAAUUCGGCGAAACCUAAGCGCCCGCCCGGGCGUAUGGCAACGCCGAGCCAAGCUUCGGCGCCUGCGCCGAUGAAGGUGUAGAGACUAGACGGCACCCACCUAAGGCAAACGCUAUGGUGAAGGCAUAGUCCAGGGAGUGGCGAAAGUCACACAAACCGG

variants of: B1; test: reverse-splicing fitness (ratio to wild type); higher = more active; in vitro selection; Mg2+ level not given
Classify by measured reverse-splicing fitness: 1.0 if it is equal to or exceeds 0.009, 0.0 if it is smaller.

Here's what some known entries look like.
> print(dat)
                          variant.code  assigned.class
1               C82U C150G C169U U176C             1.0
2         C82A A120G A145U C169A U176G             0.0
3  A111C A120U A145G C150U C169U U176G             0.0
4  A111U A120C A145G C150U C169G U176A             1.0
5         C82U A120U A145G C150A U176G             0.0

Alright, here's another variant for you.
Kindly determine if reverse-splicing fitness recorded for C82G A111G A120G A145C C150G C169U U176C is above or exactly 0.009. 1.0
